The values you see were collected from PubChem BioAssay.

Below, each entry is listed alongside its reported Her2 level.
- experimental-target: Receptor tyrosine-protein kinase erbB-2 (Homo sapiens)
- assay-protocol: reducers of endogenous Her2 protein level, primary screen, SKBR3 breast tumor cells, AlphaScreen, ATP viability (AID 461);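 as to Her2 level: lower value means less Her2 protein in the cells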;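 as to viability: percent of carrier control wells set as 100% viability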
- cond: 18-24 h, at 10 µM, stronger effect = lower value
API: value field is a number in %; no unit string.

Worked set:
## Input Retrieve Her2 level measured for COC(=O)CSc1nc(C)c(C(C)=O)cc1C#N and print it.
## Output 90.5

## Input Retrieve Her2 level measured for CCOC(=O)CSc1nnc(Cn2nnc(-c3ccccc3)n2)n1CC and print it.
## Output 84

## Input Retrieve Her2 level measured for CCOC(=O)N1CCN(S(=O)(=O)c2cc(Cl)ccc2Cl)CC1 and print it.
## Output 94.5

## Input Retrieve Her2 level measured for CCOC(=O)CSc1nnc(-c2ccc(S(=O)(=O)N3CCOCC3)cc2)n1-c1ccccc1 and print it.
## Output 83.5

## Input Retrieve Her2 level measured for CCOC(=O)N1CCC(NC(=O)CS(=O)(=O)Cc2nc(-c3ccccc3C)oc2C)CC1 and print it.
## Output 95

## Input Retrieve Her2 level measured for CCOC(=O)c1[nH]c(C)c(C(=O)N2CCN(C(=O)c3ccco3)CC2)c1C and print it.
## Output 95.5

## Input Retrieve Her2 level measured for COc1cccc(CNC(=O)C2CCN(c3cnccn3)CC2)c1 and print it.
## Output 118

## Input Retrieve Her2 level measured for C[C@H]1C[C@H]2[C@@H]3CCC4=CC(=O)C=C[C@]4(C)[C@@]3(Cl)[C@@H](O)C[C@]2(C)[C@@]1(O)C(=O)CO and print it.
## Output 112

## Input Retrieve Her2 level measured for CCOc1ccccc1NS(=O)(=O)c1c(C)noc1C and print it.
## Output 93.5

## Input Retrieve Her2 level measured for COCCCNC(=O)C(Cc1ccccc1)NS(=O)(=O)c1ccc2c(c1)c(=O)n(C)c(=O)n2C (stereo not given) and print it.
## Output 95.5

Others:
## Input Retrieve Her2 level measured for CC12CN3CC(C)(CN(C1)C3c1ccc(Br)cc1)C2 (stereo not given) and print it.
## Output 97

## Input Retrieve Her2 level measured for O=C(Nc1cccc2ccccc12)c1cnccn1 and print it.
## Output 88.5

## Input Retrieve Her2 level measured for CCOC(=O)N1CCN(C(=O)c2ccc3c(SCC(=O)O)c4c(nc3c2)CCCC4)CC1 and print it.
## Output 92.5

## Input Retrieve Her2 level measured for CCCCc1c(O)nc(SCCN(C)C)n(-c2ccccc2)c1=O and print it.
## Output 110

## Input Retrieve Her2 level measured for CCSC1(SCC)N=C(N)C2(C#N)C(c3ccccc3)NC(C)=C(C)C12C#N (stereo not given) and print it.
## Output 85.5

## Input Retrieve Her2 level measured for COc1ccccc1Nc1nc(N)nc(CSc2nccc(C)n2)n1 and print it.
## Output 90.5

###

- assay-protocol: growth suppression of PTEN-deleted HCT116, pilot screen, cell-based, HCT116 clonal line, CellTiter-Glo (AID 824);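 also: 0% = 20 µM Hyamine control and 100% = vehicle cell control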
- cond: 60 h, at 10 µM, stronger effect = lower value
Results filed as inconclusive are left out.
Below, each entry is listed alongside its reported viability.
API: value field is a number in %; no unit string.

## Input Retrieve viability measured for CCOC(=O)c1c(C)oc2cc(Br)c(O)c(Br)c12 and print it.
## Output 85.7

## Input Retrieve viability measured for COCCN1C=C(C(=O)OC)C(c2cc(Br)c(OC)c(OC)c2)C(C(=O)OC)=C1 and print it.
## Output 71.9

## Input Retrieve viability measured for COc1ccc(OC)c(C2CC(=O)N3CN(c4cccc(Cl)c4)CSC3=C2C#N)c1 (stereo unspecified) and print it.
## Output 95.4

## Input Retrieve viability measured for O=C(O)[C@@H](c1ccccc1)N1Cc2ccccc2C1=O and print it.
## Output 96.7

## Input Retrieve viability measured for CCCCNC(=O)C1c2cc(OC)c(OC)cc2C(=O)N(C)C1c1ccc(OC)cc1 (stereo unspecified) and print it.
## Output 98.4

Now turn to the next compound.
## Input Retrieve viability measured for CC(C)Cn1c(SCC#N)nc2ccccc2c1=O and print it.
## Output 88

###

- assay-protocol: growth inhibitors of H69AR lung tumor, primary screen, human, duplicate replicates (AID 580);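 also: 100% = mean luminescence of untreated wells and 0% = no signal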
- cond: H69AR lung tumor cells viability, ATP luminescence, 72 h; at 10 µM
The source made the active and inactive calls.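 Rule for the calls: active = viability at or under a set limit in both replicates, limit being median viability minus 3 SD (cut at about 48% in these data, passing the limit was not always enough); inconclusive = at or under the limit in just one replicate; inactive = at or above the limit in both replicates.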
Thanks in advance; please answer with one of these: active, inactive

## Input Hello, I am checking results. What call was entered for COc1cccc(OCC(O)CN2CCN(CCO)CC2)c1 (configuration not stated) ?
## Output inactive

## Input Hello, I am checking results. What call was entered for COc1cccc(OC)c1C(=O)n1nc(C)cc1C ?
## Output inactive

## Input Hello, I am checking results. What call was entered for COc1cc(-c2nc(S(=O)(=O)c3ccccc3)c(N3CCOCC3)o2)cc(OC)c1OC ?
## Output inactive

###

- assay-protocol: reversal of MRP1-mediated doxorubicin resistance, pilot screen, H69AR cells, doxorubicin co-treatment (AID 601)
- cond: H69AR cells, CellTiter-Glo, 72 h; compound alone cytotoxicity; at 10 µM
metric-name: viability (%)
API: value field is a number in %; no unit string.

Worked set:
## Input Retrieve viability measured for CCOC(=O)N1CCN(CC(O)COc2ccccc2C(C)CC)CC1 (stereo unspecified) and print it.
## Output 94.7

## Input Retrieve viability measured for CC(=O)C1=C(O)C(=O)N(Cc2cccnc2)C1c1ccccc1 (stereo unspecified) and print it.
## Output 105

## Input Retrieve viability measured for CC(C)[N+](C)(CCOC(=O)C1c2ccccc2Oc2ccccc21)C(C)C and print it.
## Output 88.1

Now turn to the next compound.
## Input Retrieve viability measured for Cc1cc(C)n2nc(SCc3cc(=O)n4ccccc4n3)nc2n1 and print it.
## Output 101

###

Below, each entry is listed alongside its reported viability.
- assay-protocol: reversal of MRP1-mediated doxorubicin resistance, pilot screen, H69AR cells, doxorubicin co-treatment (AID 601)
- cond: H69AR cells, CellTiter-Glo, 72 h; compound alone cytotoxicity; at 10 µM
API: value field is a number in %; no unit string.

## Input Retrieve viability measured for NC(Cc1ccc(Oc2ccc(O)cc2)cc1)C(=O)O (stereo unspecified) and print it.
## Output 80.8

###

Below, each entry is listed alongside its reported viability.
- assay-protocol: reducers of endogenous Her2 protein level, primary screen, SKBR3 breast tumor cells, AlphaScreen, ATP viability (AID 461);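 as to viability: percent of carrier control wells set as 100% viability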
- cond: 18-24 h, measured here: SKBR3 viability, ATP luminescence, at 10 µM
API: value field is a number in %; no unit string.

Worked set:
## Input Retrieve viability measured for CC(=O)Nc1ccc(Oc2ccc3nc(C)[nH]c3c2)cc1 and print it.
## Output 97.5

## Input Retrieve viability measured for COc1cc(OC)cc(-c2nc3cc(C)ccc3o2)c1 and print it.
## Output 95.5

## Input Retrieve viability measured for COc1cccc(-n2c(SC3CCOC3=O)nc3ccccc3c2=O)c1 (stereo not given) and print it.
## Output 94.5

## Input Retrieve viability measured for CCOC(=O)c1ccc(S(=O)(=O)NC2CCCCCCC2)n1C and print it.
## Output 113

## Input Retrieve viability measured for Cc1onc(-c2ccccc2)c1C(=O)N[C@@H]1C(=O)N2[C@@H]1SC(C)(C)[C@@H]2C(=O)O and print it.
## Output 108

Now turn to the next molecule.
## Input Retrieve viability measured for CC(=O)NCCn1c(SCC(=O)NCC2CCCO2)nc2ccccc2c1=O (stereo not given) and print it.
## Output 95

###

- assay-protocol: OD615 S. cerevisiae growth inhibition, permissive medium, pilot counter-assay, permissive growth control for S. cerevisiae lifespan shortening project (AID 705)
- cond: OD615, 24 h, at 10 µM, stronger effect = higher value
metric-name: growth inhibition (%)
API: value field is a number in %; no unit string.

Worked set:
## Input Retrieve growth inhibition measured for CS(=O)(=O)c1nc(-c2cccs2)cc(C(F)(F)F)n1 and print it.
## Output -22.6

## Input Retrieve growth inhibition measured for CC(C)Sc1nc(NCc2ccco2)c2c3c(sc2n1)COC(C)(C)C3 and print it.
## Output 3.17

## Input Retrieve growth inhibition measured for CC(=O)Nc1nnc(C)s1 and print it.
## Output -17

## Input Retrieve growth inhibition measured for Cc1ccc(NC(=O)CSC2=C(C#N)C(c3ccc4c(c3)OCO4)C3=C(CCCC3=O)N2)c(C)c1 (stereo not given) and print it.
## Output 21.3

Others:
## Input Retrieve growth inhibition measured for COc1ccccc1CC(=O)Nc1ccc(-c2nnc(-c3ccco3)o2)cc1 and print it.
## Output -3.64

## Input Retrieve growth inhibition measured for CN(C)CCCNCCCNC(=O)/C(=N\O)c1ccccn1 and print it.
## Output -3.34

## Input Retrieve growth inhibition measured for CCCc1cc(C(=O)N2CCN(C(c3ccccc3)c3ccccc3)CC2)no1 and print it.
## Output -10.9

## Input Retrieve growth inhibition measured for Cc1c(NC(=O)NCCN2C(=O)C3C4C=CC(C4)C3C2=O)c(=O)n(-c2ccccc2)n1C (stereo not given) and print it.
## Output -9.82

## Input Retrieve growth inhibition measured for Cc1ccc(CNC(=O)c2oc3ccc(S(=O)(=O)N4CCC5(CC4)OCCO5)cc3c2C)cc1 and print it.
## Output -11

## Input Retrieve growth inhibition measured for CCCOC(=O)c1ccc(NC(=O)C2C3C=CC(O3)C2C(=O)O)cc1 (stereo not given) and print it.
## Output -8.39
